System: UO-31
Assay: NCI tumour cell line growth inhibition, 48 h
Activity calls are given as the source filed them. No stated cut-off is given here; in the data, active = GI50 up to about 1.1 µM and inactive = higher.

{"Compound": "CC(C)(C)OC(=O)NCCCNC1(c2cc3ccccc3s2)CCCCC1", "GI50": "12.6 µM (inactive)"}
{"Compound": "N#C[C@H](c1nc2ccccc2[nH]1)c1nc2ccccc2nc1Cl", "GI50": "> 47 µM (inactive)"}
{"Compound": "O=C1/C=C(/c2ccc(O)cc2)[C@@H](OC2OC(CO)C(O)C(O)C2O)Cc2ccc(O)cc2O1.O=C1/C=C(/c2ccc(O)cc2)[C@H](O)Cc2ccc(O[C@@H]3OC(CO)C(O)C(O)C3O)cc2O1 (some centres not stated)", "GI50": "> 100 µM (inactive)"}
{"Compound": "CC1=C(O)C(O)=C(C2=C(O)C(O)=C(C)C(=O)C2=O)C(=O)C1=O", "GI50": "39.1 µM (inactive)"}
{"Compound": "Cn1c(N)c(/N=N/c2ccc(S(N)(=O)=O)cc2)c(=O)n(C)c1=O", "GI50": "> 100 µM (inactive)"}
{"Compound": "C[C@]12CC[C@@H]3c4ccc(O)cc4CC[C@H]3[C@@H]1C/C(=C\\c1ccc(C#N)cc1)C2=O", "GI50": "46.9 µM (inactive)"}
{"Compound": "O=C1C(Cl)=C(NCCO)C(=O)c2c(O)ccc(O)c21", "GI50": "6.7 µM (inactive)"}
